Entries and their pest or weed control at 125 g/ha values follow.
Test system: barnyardgrass (Echinochloa crus-galli)
Experiment: Test B pre-/postemergence plant response
Format: in vivo
Conditions: Echinochloa crus-galli, pre-emergence, 240 h; Preemergence, 125 g ai/ha; 0 to 100 scale where 0 is no effect and 100 is complete control; read-out: Plant response rating, Barnyardgrass
Assay readout: pest or weed control at 125 g/ha (%)

FCc1cc(-c2ccccc2Oc2ncc(Cl)cn2)no1 = 90
FC(F)(F)c1ccc(-c2ccccc2Oc2ncc(Cl)cn2)nc1 = 10
Cc1ccc(Oc2ncc(Cl)cn2)c(-c2ccc(C(F)(F)F)nc2)c1 = 0
FC(F)c1cc(-c2ccccc2Oc2ncc(Cl)cn2)on1 = 90

* * *

Test system: oilseed rape (Brassica napus)
Assay: Test D pre-/postemergence plant response
Format: in vivo
Conditions: Postemergence, 62 g ai/ha; scale 0 to 100, 0 no effect, 100 complete control
Assay readout: Oilseed Rape plant response rating

Fc1ccc(Oc2ncc(Cl)cn2)c(-c2cc(C(F)(Cl)Cl)on2)c1 [Compound 221] = 90
Clc1cnc(Oc2ccccc2-c2cc(Cl)sn2)nc1 [Compound 192] = 5
FCc1cc(-c2ccccc2Oc2ncc(Cl)cn2)on1 [Compound 224] = 50
Cc1cc(-c2c(F)cccc2Oc2ncc(Br)cn2)on1 [Compound 230] = 75

* * *

Tested on: ragweed (common ragweed, Ambrosia elatior)
Assay: Test D pre-/postemergence plant response
Assay type: in vivo
Settings: Postemergence, 125 g ai/ha; scale 0 to 100, 0 no effect, 100 complete control
Returns: string. Value is T if measured Plant response rating, Ragweed is below 60, and F if it is greater than or equal to it.

FC(F)(F)c1cc(-c2ccccc2Oc2ncc(Cl)cn2)ncn1 = T
Fc1ccc(Oc2ncc(Cl)cn2)c(-c2cc(C(F)F)on2)c1F = F
Clc1cnc(Oc2ccccc2-c2cc(C3CC3)on2)nc1 = F
FCc1cc(-c2ccccc2Oc2ncc(Cl)cn2)on1 = F
FCc1cc(-c2c(Br)cccc2Oc2ncc(Cl)cn2)no1 = F
Cc1cc(-c2ccccc2Oc2ncc(Cl)cn2)no1 = F
Cn1nnc(-c2ccccc2Oc2ncc(Br)cn2)n1 = T
Fc1ccc(Oc2ncc(Cl)cn2)c(-c2cc(C(F)(Cl)Cl)on2)c1 = F
Fc1ccc(Oc2ncc(Cl)cn2)c(-c2cc(C(F)F)on2)c1Cl = T
Clc1cnc(Oc2ccccc2-c2cc(Cl)sn2)nc1 = T
FCc1cc(-c2c(F)cccc2Oc2ncc(Cl)cn2)no1 = F

* * *

Tested on: corn (Zea mays)
Test: Test D pre-/postemergence plant response
Assay type: in vivo
Conditions: Preemergence; 16 g ai/ha; scale 0 to 100 (0 no effect, 100 complete control)
Assay readout: Plant response rating, Corn

FC(F)(Cl)c1cc(-c2ccccc2Oc2ncc(Cl)cn2)no1 [Compound 143] = 0
N#Cc1cccc(Oc2ncc(Cl)cn2)c1-c1cc(C(F)(F)F)on1 [Compound 157] = 5
Cc1cc(-c2c(F)cccc2Oc2ncc(Cl)cn2)on1 [Compound 229] = 0
Cc1cc(-c2ccccc2Oc2ncc(Cl)cn2)on1 [Compound 58] = 5
COc1cccc(Oc2ncc(Cl)cn2)c1-c1cc(C(F)(F)F)no1 [Compound 104] = 0
FC(F)c1cc(-c2c(Cl)cccc2Oc2ncc(Cl)cn2)on1 [Compound 120] = 0
Clc1cnc(Oc2ccccc2-c2cc(C3CC3)on2)nc1 [Compound 183] = 0
FCc1cc(-c2c(F)cccc2Oc2ncc(Cl)cn2)no1 [Compound 57] = 0

* * *

System: green foxtail (Setaria viridis)
Test: Test E pre-/postemergence plant response
Type: in vivo
Conditions: pre-emergence, 62 g ai/ha, Preemergence, scale 0 to 100, read-out: Plant response rating, Foxtail, Green
Returns: string. Value is class 1 if measured pest or weed control at 62 g/ha is below 60%, and class 0 if it is greater than or equal to it.

Fc1cccc(Oc2ncc(Cl)cn2)c1-c1cc(C(F)F)no1 [Compound 144] = class 0
FC(F)c1cc(-c2ccccc2Oc2ncc(Br)cn2)no1 [Compound 62] = class 0
Fc1cccc(Oc2ncc(Cl)cn2)c1-c1cc(C(F)(F)F)on1 [Compound 168] = class 0
FC(F)c1cc(-c2ccccc2Oc2ncc(Cl)cn2)on1 [Compound 53] = class 1
FC(F)c1cc(-c2ccccc2Oc2ncc(Cl)cn2)no1 [Compound 35] = class 0

* * *

Tested on: Italian ryegrass (Lolium multiflorum)
Test: Test D pre-/postemergence plant response
Assay type: in vivo
Details: Postemergence, 62 g ai/ha; scale 0 to 100, 0 no effect, 100 complete control
Assay readout: Plant response rating, Ryegrass, Italian

FC(F)(F)c1cc(-c2c(I)cccc2Oc2ncc(Cl)cn2)no1 [Compound 156] = 0
Cc1cc(-c2ccccc2Oc2ncc(Cl)cn2)no1 [Compound 153] = 0
FC(F)(F)c1cc(-c2ccccc2Oc2ncc(Cl)cn2)ncn1 [Compound 54] = 0
Cc1cc(-c2ccccc2Oc2ncc(Cl)cn2)on1 [Compound 58] = 0
Fc1ccc(Oc2ncc(Cl)cn2)c(-c2cc(C(F)F)on2)c1F [Compound 113] = 5
CC(F)(F)c1cc(-c2ccccc2Oc2ncc(Br)cn2)no1 [Compound 149] = 0

* * *

Tested on: wild oat (Avena fatua)
Experiment: Test E pre-/postemergence plant response
Type: in vivo
Conditions: pre-emergence, 31 g ai/ha, Preemergence, scale 0 to 100, read-out: Plant response rating, Oat, Wild
Assay readout: pest or weed control at 31 g/ha (%)

Fc1cccc(Oc2ncc(Cl)cn2)c1-c1cc(C(F)(F)F)on1 = 10
FC(F)(F)c1cc(-c2ccccc2Oc2ncc(Cl)cn2)no1 = 0
Fc1cccc(Oc2ncc(Cl)cn2)c1-c1cc(C(F)F)no1 = 30
FC(F)c1cc(-c2ccccc2Oc2ncc(Cl)cn2)on1 = 0

* * *

Tested on: corn (Zea mays)
Test: Test B pre-/postemergence plant response
Type: in vivo
Conditions: Zea mays, pre-emergence, 240 h; Preemergence, 500 g ai/ha; 0 to 100 scale where 0 is no effect and 100 is complete control
Entries and their Corn plant response rating (crop injury, 0 = no effect, 100 = complete kill) at 500 g/ha values follow.
Assay readout: Corn plant response rating (crop injury, 0 = no effect, 100 = complete kill) at 500 g/ha (%)

FC(F)(F)c1cc(-c2ccccc2Oc2ncc(Cl)cn2)on1 [Compound 63] = 30
FC(F)(F)Oc1ccc(-c2ccccc2Oc2ncc(Cl)cn2)cc1 [Compound 42] = 0
FCc1cc(-c2ccccc2Oc2ncc(Cl)cn2)no1 [Compound 32] = 0
FC(F)(F)c1cc(-c2ccccc2Oc2ncc(Cl)cn2)no1 [Compound 200] = 100

* * *

Entries and their pest or weed control at 125 g/ha values follow.
Tested on: galium (catchweed bedstraw, Galium aparine)
Assay: Test E pre-/postemergence plant response
Format: in vivo
Conditions: post-emergence, 125 g ai/ha, Postemergence, scale 0 to 100, read-out: Plant response rating, Galium
Assay readout: pest or weed control at 125 g/ha (%)

FC(F)(F)c1cc(-c2ccccc2Oc2ncc(Cl)cn2)no1 = 90
FC(F)c1cc(-c2ccccc2Oc2ncc(Cl)cn2)no1 = 85
FC(F)c1cc(-c2ccccc2Oc2ncc(Cl)cn2)on1 = 75
Fc1cccc(Oc2ncc(Br)cn2)c1-c1cc(C(F)F)no1 = 100

* * *

System: rice (Oryza sativa)
Test: Test C flooded paddy test plant response
Format: in vivo
Conditions: Flood, 250 g ai/ha; scale of 0 to 100 where 0 is no effect and 100 is complete control; 13 to 15 days
Assay readout: Rice plant response rating

Clc1cnc(Oc2ccccc2-c2cc(Cl)cnn2)nc1 = 0
Cc1cc(-c2ccccc2Oc2ncc(Cl)cn2)no1 [Compound 153] = 0
Cn1nncc1-c1ccccc1Oc1ncc(Cl)cn1 = 0
Cc1cc(-c2c(F)cccc2Oc2ncc(Cl)cn2)on1 = 15
FC(F)(F)c1cnc(Oc2ccccc2-c2cscn2)nc1 = 0
FC(F)(Br)c1cc(-c2ccccc2Oc2ncc(Cl)cn2)no1 = 0
Cc1nc(-c2ccccc2Oc2ncc(Cl)cn2)co1 = 0
FC(F)c1cc(-c2c(Cl)cccc2Oc2ncc(Br)cn2)on1 = 45
COc1cccc(Oc2ncc(F)cn2)c1-c1cc(C)no1 = 0

* * *

System: barnyardgrass (Echinochloa crus-galli)
Test: Test B pre-/postemergence plant response
Assay type: in vivo
Details: 125 g ai/ha, postemergence; 0 to 100 scale, 0 no effect, 100 complete control
Entries and their Plant response rating, Barnyardgrass values follow.
Assay readout: Plant response rating, Barnyardgrass

Brc1cnc(Oc2ccccc2-c2ccsc2)nc1 = 0
FC(F)(F)c1nccc(-c2ccccc2Oc2ncc(Cl)cn2)n1 = 0
N#Cc1cccc(Oc2ncc(Cl)cn2)c1-c1ccsc1 = 30
Cc1nc(-c2ccccc2Oc2ncc(Cl)cn2)co1 = 0
Fc1cccc(Oc2ncc(Cl)cn2)c1-c1cc(C2CC2)on1 = 100

* * *

System: ragweed (common ragweed, Ambrosia elatior)
Experiment: Test D pre-/postemergence plant response
Format: in vivo
Conditions: Postemergence, 31 g ai/ha; scale 0 to 100 (0 no effect, 100 complete control)
Entries and their Ragweed plant response rating values follow.
Assay readout: Ragweed plant response rating

Cc1cc(-c2ccccc2Oc2ncc(Cl)cn2)no1 [Compound 60] = 30
FC(Cl)c1cc(-c2ccccc2Oc2ncc(Cl)cn2)no1 (stereo not shown) [Compound 116] = 35
Cc1cc(-c2ccccc2Oc2ncc(Cl)cn2)no1 [Compound 153] = 10
FC(F)c1cc(-c2c(Cl)cccc2Oc2ncc(Cl)cn2)on1 [Compound 120] = 55
FC(F)c1cc(-c2c(Cl)cccc2Oc2ncc(Br)cn2)on1 [Compound 121] = 65
FC(F)c1cc(-c2ccccc2Oc2ncc(Br)cn2)on1 [Compound 212] = 40
FC(F)(Cl)c1cc(-c2ccccc2Oc2ncc(Cl)cn2)no1 [Compound 143] = 5
